Provide the recorded MIC50 for the entries that follow.
# Tested on: Sporothrix globosa
# test-protocol: Antifungal activity against Sporothrix globosa after 72 hrs by microdilution method
# Format: functional

Worked examples, 2 compounds total:
[[record]]
compound = "CC(=O)N1CCN(c2ccc(OCC3COC(Cn4ccnc4)(c4ccc(Cl)cc4Cl)O3)cc2)CC1 (stereo not given)"
measurement_type = "MIC50"
result = "1 µg/mL"

[[record]]
compound = "CN(C/C=C/C#CC(C)(C)C)Cc1cccc2ccccc12"
measurement_type = "MIC50"
result = "0.25 µg/mL"


I have 3 compounds here; please give me MIC50 for each one.
1. C[C@@H](c1ncncc1F)[C@](O)(Cn1cncn1)c1ccc(F)cc1F
2. Clc1cc(Cl)c2c(c1)CCc1ccccc1C2n1ccnc1 (stereo not given)
3. C[C@@H]1[C@H](O)[C@@H](C)/C=C/C=C/C=C/C=C/C=C/C=C/C=C/[C@H](O[C@@H]2O[C@H](C)[C@@H](O)[C@H](N)[C@@H]2O)C[C@@H]2O[C@](O)(C[C@@H](O)C[C@@H](O)[C@H](O)CC[C@@H](O)C[C@@H](O)CC(=O)O[C@H]1C)C[C@H](O)[C@H]2C(=O)O

Reply |
1: 32 µg/mL; 2: 2 µg/mL; 3: 4 µg/mL

====

# System: Sporothrix albicans
# test-protocol: Antifungal activity against Sporothrix albicans after 72 hrs by microdilution method
# Assay type: functional
Numbered stars: 1 amine (or outer) side, 2 acyl side, 3 side chain; on linkers, the order of the positions; unused ones are H or OH. Bridge positions count the residues as written; N and C are the ends. Square brackets hold non-standard residues; d marks the D form. Peptide text beside a SMILES is read from it. * marks the point of attachment. hTyr(3S-OH,4S-OH,3'-OSO3H) = N[C@H](C(=O)O)[C@H](O)[C@@H](O)c1ccc(O)c(OS(=O)(=O)O)c1; Orn(4R-OH,5R-OH) = O=C([C@H](C[C@@H](O)[C@@H](O)N[*:3])N[*:1])[*:2]; Pro(3S-OH,4S-Me) = C[C@H]1CN[C@H](C(=O)O)[C@H]1O; X1 = CCCCCOc1ccc(-c2cc(-c3ccc(C(=O)*)cc3)no2)cc1; Gln(3R-OH) = NC(=O)C[C@@H](O)[C@H](N)C(=O)O; Hyp = O=C(O)[C@@H]1C[C@@H](O)CN1
measurement-type: MIC50 (µg/mL)
Numbers only, in µg/mL.

Here are 5 compounds together with their reported answers.
[[record]]
compound = "CCCCCOc1ccc(-c2cc(-c3ccc(C(=O)N[C@H]4C[C@@H](O)[C@@H](O)NC(=O)[C@@H]5[C@@H](O)[C@@H](C)CN5C(=O)[C@H]([C@H](O)CC(N)=O)NC(=O)[C@H]([C@H](O)[C@@H](O)c5ccc(O)c(OS(=O)(=O)O)c5)NC(=O)[C@@H]5C[C@@H](O)CN5C(=O)[C@H]([C@@H](C)O)NC4=O)cc3)no2)cc1 [MICAFUNGIN] (X1-[Orn(4R-OH,5R-OH)]T[Hyp][hTyr(3S-OH,4S-OH,3'-OSO3H)][Gln(3R-OH)][Pro(3S-OH,4S-Me)]; lactam 1-C)"
measurement_type = "MIC50"
measured_number = 256

[[record]]
compound = "C[C@@H]1[C@H](O)[C@@H](C)/C=C/C=C/C=C/C=C/C=C/C=C/C=C/[C@H](O[C@@H]2O[C@H](C)[C@@H](O)[C@H](N)[C@@H]2O)C[C@@H]2O[C@](O)(C[C@@H](O)C[C@@H](O)[C@H](O)CC[C@@H](O)C[C@@H](O)CC(=O)O[C@H]1C)C[C@H](O)[C@H]2C(=O)O [AMPHOTERICIN B]"
measurement_type = "MIC50"
measured_number = 4

[[record]]
compound = "CC(=O)N1CCN(c2ccc(OCC3COC(Cn4ccnc4)(c4ccc(Cl)cc4Cl)O3)cc2)CC1 (configuration not stated) [KETOCONAZOLE]"
measurement_type = "MIC50"
measured_number = 4

[[record]]
compound = "C[C@@H](n1cnc2cc(Cl)ccc2c1=O)[C@](O)(Cn1cncn1)c1ccc(F)cc1F [ALBACONAZOLE]"
measurement_type = "MIC50"
measured_number = 16

[[record]]
compound = "C[C@@H](c1nc(-c2ccc(C#N)cc2)cs1)[C@](O)(Cn1cncn1)c1ccc(F)cc1F [RAVUCONAZOLE]"
measurement_type = "MIC50"
measured_number = 16


Consider the following items and state reported MIC50 for each.
1. OC(Cn1cncn1)(Cn1cncn1)c1ccc(F)cc1F [FLUCONAZOLE]
2. CN(C/C=C/C#CC(C)(C)C)Cc1cccc2ccccc12 [TERBINAFINE]
3. CC[C@@H]([C@H](C)O)n1ncn(-c2ccc(N3CCN(c4ccc(OC[C@@H]5CO[C@@](Cn6cncn6)(c6ccc(F)cc6F)C5)cc4)CC3)cc2)c1=O [POSACONAZOLE]
4. CCC(C)n1ncn(-c2ccc(N3CCN(c4ccc(OCC5COC(Cn6cncn6)(c6ccc(Cl)cc6Cl)O5)cc4)CC3)cc2)c1=O (configuration not stated) [ITRACONAZOLE]
5. Clc1cc(Cl)c2c(c1)CCc1ccccc1C2n1ccnc1 (configuration not stated) [EBERCONAZOLE]
6. C[C@@H](c1ncncc1F)[C@](O)(Cn1cncn1)c1ccc(F)cc1F [VORICONAZOLE]
7. Nc1nc(=O)[nH]cc1F [FLUCYTOSINE]

Reply |
[128, 0.5, 2, 32, 8, 8, 128]
